Test system: Escherichia coli TOP10;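 note: peptides expressed intracellularly from a pBAD plasmid library in pooled LB shake-flask culture, induced with 0.3% L-arabinose, DNA abundance read by NGS, three biological replicates, DESeq2 with apeglm shrinkage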
Assay: shrunken log2 fold change of peptide-encoding DNA abundance (4.5 h post-induction vs induction); higher = less antimicrobial activity (less host growth inhibition)
Details: time post-induction: 4.5 h; library: site-saturation at positions 5, 18, 19, 20
# shrunken log2 fold change values compiled below
Experimental readout: shrunken log2 fold change

[
  {
    "Ordered residues": "RRIRARPPRLPRPRPRPPLDPRP",
    "Numeric readout": 1
  },
  {
    "Ordered residues": "RRIRGRPPRLPRPRPRPPMSPRP",
    "Numeric readout": 0.565
  },
  {
    "Ordered residues": "RRIRERPPRLPRPRPRPNCKPRP",
    "Numeric readout": -0.832
  },
  {
    "Ordered residues": "RRIRIRPPRLPRPRPRPHICPRP",
    "Numeric readout": -0.0273
  },
  {
    "Ordered residues": "RRIRTRPPRLPRPRPRPFPVPRP",
    "Numeric readout": -0.177
  },
  {
    "Ordered residues": "RRIRWRPPRLPRPRPRPLPRPRP",
    "Numeric readout": 0.534
  },
  {
    "Ordered residues": "RRIRNRPPRLPRPRPRPPIEPRP",
    "Numeric readout": 0.0957
  },
  {
    "Ordered residues": "RRIRWRPPRLPRPRPRPSTKPRP",
    "Numeric readout": -0.0244
  },
  {
    "Ordered residues": "RRIRERPPRLPRPRPRPGAKPRP",
    "Numeric readout": 0.188
  },
  {
    "Ordered residues": "RRIRTRPPRLPRPRPRPDNPPRP",
    "Numeric readout": -0.371
  },
  {
    "Ordered residues": "RRIRARPPRLPRPRPRPWFIPRP",
    "Numeric readout": -0.502
  },
  {
    "Ordered residues": "RRIRYRPPRLPRPRPRPQKDPRP",
    "Numeric readout": -0.177
  },
  {
    "Ordered residues": "RRIRDRPPRLPRPRPRPLSWPRP",
    "Numeric readout": 0.488
  },
  {
    "Ordered residues": "RRIRTRPPRLPRPRPRPSIFPRP",
    "Numeric readout": -0.122
  },
  {
    "Ordered residues": "RRIRDRPPRLPRPRPRPPFPPRP",
    "Numeric readout": 0.206
  },
  {
    "Ordered residues": "RRIRDRPPRLPRPRPRPTSPPRP",
    "Numeric readout": -0.267
  },
  {
    "Ordered residues": "RRIRRRPPRLPRPRPRPVMPPRP",
    "Numeric readout": 0.338
  },
  {
    "Ordered residues": "RRIRWRPPRLPRPRPRPYMNPRP",
    "Numeric readout": -1.44
  },
  {
    "Ordered residues": "RRIRLRPPRLPRPRPRPHMLPRP",
    "Numeric readout": -0.264
  },
  {
    "Ordered residues": "RRIRRRPPRLPRPRPRPESYPRP",
    "Numeric readout": 0.0503
  },
  {
    "Ordered residues": "RRIRPRPPRLPRPRPRPQLTPRP",
    "Numeric readout": -0.221
  },
  {
    "Ordered residues": "RRIRLRPPRLPRPRPRPCAFPRP",
    "Numeric readout": -0.295
  },
  {
    "Ordered residues": "RRIRRRPPRLPRPRPRPVWPPRP",
    "Numeric readout": 0.36
  },
  {
    "Ordered residues": "RRIRFRPPRLPRPRPRPRMRPRP",
    "Numeric readout": 0.608
  },
  {
    "Ordered residues": "RRIRPRPPRLPRPRPRPVLQPRP",
    "Numeric readout": 0.162
  },
  {
    "Ordered residues": "RRIRTRPPRLPRPRPRPMKEPRP",
    "Numeric readout": -0.164
  },
  {
    "Ordered residues": "RRIRRRPPRLPRPRPRPVDMPRP",
    "Numeric readout": 0.0522
  },
  {
    "Ordered residues": "RRIRMRPPRLPRPRPRPAIMPRP",
    "Numeric readout": 0.284
  },
  {
    "Ordered residues": "RRIRERPPRLPRPRPRPSSWPRP",
    "Numeric readout": -0.0518
  },
  {
    "Ordered residues": "RRIRMRPPRLPRPRPRPFWDPRP",
    "Numeric readout": 0.359
  },
  {
    "Ordered residues": "RRIRFRPPRLPRPRPRPWNEPRP",
    "Numeric readout": -0.173
  },
  {
    "Ordered residues": "RRIRGRPPRLPRPRPRPNADPRP",
    "Numeric readout": 2.38
  },
  {
    "Ordered residues": "RRIRGRPPRLPRPRPRPDVDPRP",
    "Numeric readout": 1.82
  },
  {
    "Ordered residues": "RRIRTRPPRLPRPRPRPIKYPRP",
    "Numeric readout": 4.24
  },
  {
    "Ordered residues": "RRIRARPPRLPRPRPRPTYVPRP",
    "Numeric readout": 0.504
  },
  {
    "Ordered residues": "RRIRNRPPRLPRPRPRPPFMPRP",
    "Numeric readout": -0.0578
  },
  {
    "Ordered residues": "RRIRARPPRLPRPRPRPHDFPRP",
    "Numeric readout": 0.0354
  },
  {
    "Ordered residues": "RRIRIRPPRLPRPRPRPPGLPRP",
    "Numeric readout": 0.204
  },
  {
    "Ordered residues": "RRIRFRPPRLPRPRPRPFFGPRP",
    "Numeric readout": 0.0944
  },
  {
    "Ordered residues": "RRIRCRPPRLPRPRPRPRCKPRP",
    "Numeric readout": -0.206
  },
  {
    "Ordered residues": "RRIRDRPPRLPRPRPRPIGCPRP",
    "Numeric readout": 0.242
  },
  {
    "Ordered residues": "RRIRYRPPRLPRPRPRPLSAPRP",
    "Numeric readout": -0.542
  },
  {
    "Ordered residues": "RRIRSRPPRLPRPRPRPYDWPRP",
    "Numeric readout": -0.102
  },
  {
    "Ordered residues": "RRIRDRPPRLPRPRPRPHAWPRP",
    "Numeric readout": 0.1
  },
  {
    "Ordered residues": "RRIRVRPPRLPRPRPRPHQWPRP",
    "Numeric readout": -0.239
  },
  {
    "Ordered residues": "RRIRERPPRLPRPRPRPREGPRP",
    "Numeric readout": 0.46
  },
  {
    "Ordered residues": "RRIRRRPPRLPRPRPRPLLHPRP",
    "Numeric readout": 0.295
  },
  {
    "Ordered residues": "RRIRYRPPRLPRPRPRPAEIPRP",
    "Numeric readout": -0.148
  },
  {
    "Ordered residues": "RRIRGRPPRLPRPRPRPEFNPRP",
    "Numeric readout": 0.669
  },
  {
    "Ordered residues": "RRIRPRPPRLPRPRPRPKCTPRP",
    "Numeric readout": -0.0758
  },
  {
    "Ordered residues": "RRIRNRPPRLPRPRPRPQHWPRP",
    "Numeric readout": 0.13
  },
  {
    "Ordered residues": "RRIRQRPPRLPRPRPRPHKQPRP",
    "Numeric readout": -0.608
  },
  {
    "Ordered residues": "RRIRERPPRLPRPRPRPKTQPRP",
    "Numeric readout": -0.102
  },
  {
    "Ordered residues": "RRIRRRPPRLPRPRPRPTLAPRP",
    "Numeric readout": 0.939
  },
  {
    "Ordered residues": "RRIRQRPPRLPRPRPRPGAHPRP",
    "Numeric readout": 0.179
  },
  {
    "Ordered residues": "RRIRSRPPRLPRPRPRPSKMPRP",
    "Numeric readout": -0.0555
  },
  {
    "Ordered residues": "RRIRHRPPRLPRPRPRPKFSPRP",
    "Numeric readout": -0.304
  },
  {
    "Ordered residues": "RRIRERPPRLPRPRPRPMGMPRP",
    "Numeric readout": -0.00992
  },
  {
    "Ordered residues": "RRIRRRPPRLPRPRPRPAHAPRP",
    "Numeric readout": 0.407
  },
  {
    "Ordered residues": "RRIRCRPPRLPRPRPRPYYLPRP",
    "Numeric readout": -0.38
  },
  {
    "Ordered residues": "RRIRTRPPRLPRPRPRPGNGPRP",
    "Numeric readout": -0.222
  },
  {
    "Ordered residues": "RRIRPRPPRLPRPRPRPPLNPRP",
    "Numeric readout": 0.275
  },
  {
    "Ordered residues": "RRIRIRPPRLPRPRPRPRHTPRP",
    "Numeric readout": -0.34
  }
]
